Data provenance: the NIST ThermoML archive (doi:10.1016/j.fluid.2014.04.002)

- procedure_text: refractive index (Na D-line) (dimensionless)
- experimental_context: 308.15 K; 101.33 kPa; Liquid; Standard Abbe refractometry
assay_endpoint: refractive index

molecule=COCCOCCOCCOCCOC value_observed=1.42697
molecule="C1CCOC1 [tetrahydrofuran]" value_observed=1.39931
molecule="CCOC(=O)C(C)O (racemic) [DL-ethyl lactate]" value_observed=1.4061
molecule="CC(O)CO (stereo not given)" value_observed=1.42764
molecule=OCCCO value_observed=1.43526

---

- procedure_text: refractive index (Na D-line) (dimensionless)
- experimental_context: 303.15 K; 101.33 kPa; Liquid; Standard Abbe refractometry
assay_endpoint: refractive index

molecule=OCCCO value_observed=1.43667
molecule="CC(O)CO (stereo not given)" value_observed=1.42934
molecule="C1CCOC1 [tetrahydrofuran]" value_observed=1.40203
molecule=COCCOCCOCCOCCOC value_observed=1.42906
molecule="CCOC(=O)C(C)O (racemic) [DL-ethyl lactate]" value_observed=1.40843
